Each record here notes measured Short-term stability at room temperature for 6 h, RE.
Test: Stability tests of analytes in rat plasma QC samples
Type: in vitro ADME
Details: rat plasma, nominal conc. 20 nM
readout-label: Short-term stability at room temperature for 6 h, RE

1) CC(C)=CCC[C@](C)(O)[C@H]1CC[C@]2(C)[C@@H]1[C@H](O)C[C@@H]1[C@@]3(C)CC[C@H](O)C(C)(C)[C@@H]3[C@@H](O[C@@H]3O[C@H](CO)[C@@H](O)[C@H](O)[C@H]3O)C[C@]12C [Compound C1, Ginsenoside Rh1] :: 13.31%
2) CC(C)=CCC[C@](C)(O[C@@H]1O[C@H](CO[C@@H]2O[C@@H](CO)[C@H](O)[C@H]2O)[C@@H](O)[C@H](O)[C@H]1O)[C@H]1CC[C@]2(C)[C@@H]1[C@H](O)C[C@@H]1[C@@]3(C)CC[C@H](O[C@@H]4O[C@H](CO)[C@@H](O)[C@H](O)[C@H]4O[C@@H]4O[C@H](CO)[C@@H](O)[C@H](O)[C@H]4O)C(C)(C)[C@@H]3CC[C@]12C [Compound D3, Ginsenoside Rc] :: 10.56%
3) CC(C)=CCC[C@](C)(O[C@@H]1O[C@H](CO)[C@@H](O)[C@H](O)[C@H]1O)[C@H]1CC[C@]2(C)[C@@H]1[C@H](O)C[C@@H]1[C@@]3(C)CC[C@H](O)C(C)(C)[C@@H]3[C@@H](O[C@@H]3O[C@H](CO)[C@@H](O)[C@H](O)[C@H]3O[C@@H]3OC[C@@H](O)[C@H](O)[C@H]3O)C[C@]12C [Compound C8, Notoginsenoside R1] :: -12.08%
4) O=C1CCC[C@@H]2[C@H]3CCCN4CCC[C@@H](CN12)[C@@H]34 :: 8.05%
5) CC(C)=CCC[C@](C)(O)[C@H]1CC[C@]2(C)[C@@H]1[C@H](O)C[C@@H]1[C@@]3(C)CC[C@H](O)C(C)(C)[C@@H]3[C@@H](O[C@@H]3O[C@H](CO)[C@@H](O)[C@H](O)[C@H]3O[C@@H]3O[C@H](CO)[C@@H](O)[C@H](O)[C@H]3O)C[C@]12C [Compound C7, Ginsenoside Rf] :: 11.15%

* * *

Each record here notes measured Cmax.
Test: Plasma pharmacokinetics in rats after a 30-min intravenous infusion of Kang-Ai injection
Format: in vivo, Sprague–Dawley rats
Details: rat plasma; 30-min iv infusion of Kang-Ai injection 6 mL/kg; read-out: Cmax
readout-label: Cmax

1) CC(C)(O)[C@@H]1CC[C@](C)([C@H]2[C@@H](O)C[C@@]3(C)[C@@H]4C[C@H](O)[C@H]5C(C)(C)[C@@H](O[C@@H]6OC[C@@H](O)[C@H](O)[C@H]6O[C@@H]6O[C@H](CO)[C@@H](O)[C@H](O)[C@H]6O)CC[C@@]56C[C@@]46CC[C@]23C)O1 [Compound B3, Astragaloside III] :: 0.0548 µM
2) CC(C)(O)[C@@H]1CC[C@](C)([C@H]2[C@@H](O)C[C@@]3(C)[C@@H]4C[C@H](O[C@@H]5O[C@H](CO)[C@@H](O)[C@H](O)[C@H]5O)[C@H]5C(C)(C)[C@@H](O[C@@H]6OC[C@@H](O)[C@H](O)[C@H]6O)CC[C@@]56C[C@@]46CC[C@]23C)O1 [Compound B2, Astragaloside IV] :: 2.36 µM
3) CC(C)=CCC[C@](C)(O[C@@H]1O[C@H](CO)[C@@H](O)[C@H](O)[C@H]1O)[C@H]1CC[C@]2(C)[C@@H]1[C@H](O)C[C@@H]1[C@@]3(C)CC[C@H](O)C(C)(C)[C@@H]3[C@@H](O[C@@H]3O[C@H](CO)[C@@H](O)[C@H](O)[C@H]3O[C@@H]3OC[C@@H](O)[C@H](O)[C@H]3O)C[C@]12C [Compound C8, Notoginsenoside R1] :: 0.121 µM
4) O=c1cccc2n1C[C@H]1C[C@@H]2CN2CC[C@H](O)C[C@H]12 :: 0.264 µM
